Cited source for all entries: PubChem BioAssay (NCI)

- Tested on: HOP-92 NSCLC
- ASSAY NAME: NCI tumour cell line growth inhibition, 48 h
# maps each entry to its TGI

Solved cases (4 shown):
>>> recorded_value("CC(=O)C1=CN=C2C(=O)N(c3ccccc3)N(C)C12C (stereo not given)")
"> 100 µM"
>>> recorded_value("COC(=O)c1cncc(/C=C/c2c(C)cc(O)cc2C)c1")
"> 22.1 µM"
>>> recorded_value("O=C(O)/C=C/c1nc2ccccc2c(=O)o1")
"> 100 µM"
>>> recorded_value("Cc1ccc(-c2nc(N/N=C/C=C/c3ccccc3)c3ccccc3n2)cc1")
"> 100 µM"

Moving on to the next compound.
**Q:** Read the entry Cc1ccccc1NC(=O)C(=O)C(C#N)c1ccccc1C (stereo not given) and write its reported TGI.
**A:** > 100 µM

* * *

# Lookup of reported TGI keyed by entry
- Test system: HOP-62 NSCLC
- ASSAY NAME: NCI tumour cell line growth inhibition, 48 h

>>> recorded_value("COc1ccc(/C=N/n2c(C)n[nH]c2=O)c(OC)c1")
"> 100 µM"
>>> recorded_value("CCOC(=O)c1c(C)n(-c2ccc(Cl)cc2)c2c1cc(O)c1[nH]c3c(c12)CCCC3")
"> 100 µM"

**Q:** Give the value of TGI reported for the following: O=C(NC1CCN(Cc2ccccc2)CC1)c1ccc(I)cc1
**A:** > 100 µM

* * *

- Tested on: SF-268 CNS
- ASSAY NAME: NCI tumour cell line growth inhibition, 48 h
ENDPOINT: TGI

>>> recorded_value("O=C(N/N=C/c1ccc([N+](=O)[O-])cc1)Nc1ccc(C(=O)O)cc1")
"> 100 µM"
>>> recorded_value("CCN(CC)c1ccc2c(c1)Oc1ccc(N(CC)CC)cc1C21Oc2ccccc2-c2c1c1ccccc1n2CC (stereo not drawn)")
"> 100 µM"

Now consider a different molecule.
**Q:** Tell me its TGI given COC1=C(OC)C(=O)C(SC/C=C(\C)CCCC(C)CCCC(C)CCCC(C)C)=CC1=O (stereo not drawn) as the entry.
**A:** > 100 µM

* * *

- System: M14 melanoma
- ASSAY NAME: NCI tumour cell line growth inhibition, 48 h
Measured TGI by item
Field: numeric (µM). Do not append units.

>>> recorded_value("c1ccc2cc(-c3n(Cc4ccc5ccccc5n4)c4ccccc4[n+]3Cc3ccc4ccccc4n3)ccc2c1")
1.53
>>> recorded_value("O=S(=O)(/C=C/C(=C/c1ccccc1)S(=O)(=O)c1ccccc1)c1ccccc1")
2.57
>>> recorded_value("CCCCCCCCCCCCC(Br)C(=O)NCC(N)=O (stereo not given)")
24.6
>>> recorded_value("COc1cc2nc(-c3cc(F)ccc3O)nc(N[C@@H]3CNC[C@H]3C(C)(C)O)c2cc1OC")
3.47
>>> recorded_value("CCc1cccc(C)c1NC(=O)c1sc2nc3c(cc2c1N)C(=O)CCC3")
25.8
>>> recorded_value("CCN(CC)CCCCCCNc1cc(OC)cc2cccnc12")
3.74

In the following, a different molecule is considered.
**Q:** Name the value of TGI reported for COc1ccc(-c2nc(/C=C3\SC(=NCc4ccccc4)NC3=O)c3ccccn23)cc1 when tested on M14 melanoma.
**A:** 2.42

* * *

- Test system: NCI-H460 lung
- ASSAY NAME: NCI tumour cell line growth inhibition, 48 h
ENDPOINT: TGI

Worked examples, 2 molecules total:
>>> recorded_value("N[C@H](C(=O)O)[C@@H]1CC(Br)=NO1")
"> 100 µM"
>>> recorded_value("NC(=O)NNC(=O)NC12CC3CC(CC(C3)C1)C2")
"> 100 µM"

**Q:** Answer with reported TGI of O=c1[nH]nc(Cc2ccccc2)n1C1CCCC1
**A:** > 100 µM

**Q:** Note TGI for the molecule shown: Cc1cn(CCCCC2=NCCCN2)c(=O)[nH]c1=O
**A:** > 67.8 µM

**Q:** Tell me its TGI given Cc1nc(C(=O)O)c2ccccc2n1 as the entry.
**A:** > 100 µM

* * *

Recorded TGI values for a group of molecules are listed next.
- Test system: MDA-MB-435
- ASSAY NAME: NCI tumour cell line growth inhibition, 48 h

Past entries and their recorded results:
>>> recorded_value("C[C@]12C[C@@H](OC(=O)[C@]1(C)O)[C@@H]([C@]1(O)CC[C@H]3[C@@H]4C[C@H]5O[C@]56C[C@H]5O[C@H]5C(=O)[C@]6(C)[C@H]4CC[C@@]31C)C2")
"> 50 µM"
>>> recorded_value("CCc1c(C)c(C#N)c(=S)n(C2OC(COC(C)=O)C(OC(C)=O)C(OC(C)=O)C2OC(C)=O)c1-c1ccccc1 (stereo unspecified)")
"> 31.6 µM"
>>> recorded_value("Cc1cc(N(CCC#N)CCC#N)ccc1/C(N=Nc1cccc(Cl)c1)=N/NC(=O)c1cc(Cl)ccc1O")
"> 100 µM"
>>> recorded_value("Cc1ccc(NC(=O)c2cc(S(=O)(=O)Nc3n[nH]c(=O)[nH]3)c(SSc3cc(Cl)c(C(=O)Nc4ccc(C)cc4)cc3S(=O)(=O)Nc3n[nH]c(=O)[nH]3)cc2Cl)cc1")
"> 100 µM"
>>> recorded_value("CC(C)C(C(=O)O)N1C(=O)c2ccccc2C1=O (stereo unspecified)")
"> 100 µM"

**Q:** Please list TGI recorded for the molecule Cc1cc[n+]2c(c1)-c1cc(C)cc[n+]1CC2
**A:** > 100 µM

**Q:** Kindly indicate its recorded TGI. Item: N[C@H](C(=O)O)[C@@H]1CC(Br)=NO1
**A:** > 100 µM

**Q:** // Input: OCCN(CCO)c1ncnc2nc[nH]c12 . Output its TGI only.
**A:** > 100 µM

**Q:** Give the value of TGI reported for the following: C=CCN1CC(=O)N2[C@@H](Cc3ccc(O)cc3F)C(=O)N(Cc3cccc(N4CC(N5CCN(CC)CC5)C4)n3)C[C@@H]2N1C(=O)NCc1ccccc1
**A:** > 100 µM

**Q:** Determine its reported TGI: O=C(O)c1cccc(C(=O)O)c1S(=O)Cc1ccccc1 (stereo unspecified)
**A:** > 100 µM

**Q:** In one line, give reported TGI of the entry COc1ccc(NC(=O)C2CCC(CNS(=O)(=O)c3ccccc3)CC2)cc1OC (stereo unspecified) .
**A:** > 100 µM

* * *

- System: HCT-15 colon
- ASSAY NAME: NCI tumour cell line growth inhibition, 48 h
ENDPOINT: TGI

**Q:** State, in one line, measured TGI of CC(=O)NC1C(OCc2ccccc2)OC(CO)C(O)C1OC(C)C(=O)NC(C)C(=O)NC(CCC(=O)NCCCCNc1c2ccccc2nc2cccc([N+](=O)[O-])c12)C(N)=O (centres undefined)
**A:** 0.0495 µM

**Q:** Determine its reported TGI: CCOC(=O)N1N=C(/C(C)=N/OC)C(C)S1=O (centres undefined)
**A:** > 100 µM

**Q:** Read off the recorded TGI for CCC(=O)C(CCN1CCC2(CCCc3ccccc32)CC1)(c1ccccc1)c1ccccc1
**A:** 15.1 µM

**Q:** Output TGI of COc1ncnc(NS(=O)(=O)c2ccc(N=C3C(=O)N(CN4CCN(c5c(F)cc6c(=O)c(C(=O)O)cn(C7CC7)c6c5OC)CC4C)c4ccc(Br)cc43)cc2)c1OC (centres undefined)
**A:** > 50 µM

**Q:** In one line, give reported TGI of the entry CN(C)C(=NCc1ccccc1)NC#N .
**A:** > 100 µM

**Q:** State its TGI for this molecule: Nc1ccc2c(c1)nc1n2C(c2c(F)cccc2F)SC1 (centres undefined)
**A:** > 100 µM

**Q:** Quote TGI reported for O=C(CC1(O)C(=O)N(Cc2ccccc2)c2ccccc21)c1ccc(C(=O)NCC2CCC3(CC2)OOC2(CCCCC2)OO3)cc1 (centres undefined) please.
**A:** 4.76 µM

**Q:** Give the measured TGI for COc1cc2c(c(O)c1OC)C(=O)[C@@H]1CCC(=O)N1C2
**A:** > 100 µM

**Q:** Find the measured TGI of OCCN(CCO)c1ncnc2nc[nH]c12 and report it.
**A:** > 100 µM

**Q:** // Input: CCOC(=O)c1c(C)n(-c2ccc(Cl)cc2)c2c1cc(O)c1[nH]c3c(c12)CCCC3 . Output its TGI only.
**A:** > 100 µM

**Q:** Name the recorded TGI of the item N#CC1=C(/N=C/c2ccccc2)Oc2c(ccc3ccccc23)C1c1ccccc1 (centres undefined) in your answer.
**A:** > 100 µM

**Q:** Identify TGI associated with the molecule c1cnc2c(c1)ccc1cccnc12
**A:** > 100 µM

**Q:** Indicate the recorded TGI value for this molecule: CCc1cccc(C)c1NC(=O)c1sc2nc3c(cc2c1N)C(=O)CCC3
**A:** > 100 µM

**Q:** Supply recorded TGI for N#CC(C#N)c1ccc(C(=O)N2CCC[C@H]2CO)cc1 here.
**A:** > 100 µM
